Target: Energy-coupling factor transporter transmembrane protein EcfT (Lactobacillus casei, UniProt A0A510WMC0)
Sequence (A0A510WMC0 whole entry): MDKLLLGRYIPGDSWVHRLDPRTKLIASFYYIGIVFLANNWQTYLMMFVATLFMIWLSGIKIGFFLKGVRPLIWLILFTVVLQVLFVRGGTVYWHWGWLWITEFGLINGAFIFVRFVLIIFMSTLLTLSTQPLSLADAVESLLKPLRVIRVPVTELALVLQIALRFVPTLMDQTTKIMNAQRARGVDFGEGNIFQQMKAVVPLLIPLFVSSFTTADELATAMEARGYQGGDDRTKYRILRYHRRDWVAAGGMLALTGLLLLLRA
Experiment: Inhibition of Lactobacillus casei ECF-FolT assessed as inhibition of radiolabelled folic acid uptake pre-incubated for 10 mins followed tritium labeled folic acid addition measured after 30 mins by liquid scintillation analysis

| itemSmiles | IC50 (µM) |
| --- | --- |
| CCCCCCNC(=O)Nc1cc(-c2cc(Cl)ccc2Cl)sc1C(=O)O | 21.8 |
| CCCCN(C(=O)Nc1cc(-c2ccc(Cl)c(Cl)c2)sc1C(=O)O)c1ccccc1 | 2.35 |
| CN(Cc1ccccc1)C(=O)Nc1cc(-c2ccc(Cl)c(Cl)c2)sc1C(=O)O | 10 |
| CCN(Cc1ccccc1)C(=O)Nc1cc(-c2ccc(Cl)c(Cl)c2)sc1C(=O)O | 11.4 |
| CCCCN(C(=O)Nc1c(-c2cc(Cl)ccc2Cl)csc1C(=O)O)c1ccccc1 | 17 |
| O=C(NCCc1ccccc1)Nc1cc(-c2ccc(Cl)c(Cl)c2)sc1C(=O)O | 15.3 |
| CCCCCCNC(=O)Nc1cc(-c2ccc([N+](=O)[O-])cc2)sc1C(=O)O | 25.1 |
| O=C(O)c1sc(-c2ccc(Cl)c(Cl)c2)cc1NC(=O)N(Cc1ccccc1)Cc1ccccc1 | 24 |
| CCCCCCNC(=O)Nc1scc(-c2ccc(Cl)c(Cl)c2)c1C(=O)O | 18.5 |
| CCN(Cc1ccccc1)C(=O)Nc1cc(-c2ccc(Oc3ccccc3)cc2)sc1C(=O)O | 10.1 |
| CCCCN(C(=O)Nc1c(-c2ccc(Oc3ccccc3)cc2)csc1C(=O)O)c1ccccc1 | 3.9 |
| CCCCCCNC(=O)Nc1cc(-c2cccc([N+](=O)[O-])c2)sc1C(=O)O | 43.3 |
| O=C(NCc1ccccc1)Nc1cc(-c2ccc(Cl)c(Cl)c2)sc1C(=O)O | 17.8 |
| O=C(Nc1ccccc1)Nc1cc(-c2ccc(Cl)c(Cl)c2)sc1C(=O)O | 14.4 |
| CCCCCCNC(=O)Nc1cc(-c2ccc(Cl)c(Cl)c2)sc1C(=O)O | 28.5 |
| O=C(O)c1sc(-c2ccc(Cl)c(Cl)c2)cc1NC(=O)N(Cc1ccccc1)c1ccccc1 | 2.94 |
| CCN(C(=O)Nc1cc(-c2ccc(Cl)c(Cl)c2)sc1C(=O)O)c1ccccc1 | 10.5 |
| CN(C(=O)Nc1cc(-c2ccc(Cl)c(Cl)c2)sc1C(=O)O)c1ccccc1 | 23 |
| CCCCCCNC(=O)Nc1c(-c2ccc(Cl)c(Cl)c2)csc1C(=O)O | 6 |
